assayName: CREB reporter modulators under forskolin, primary screen, cell-based, PC12, CRE-LacZ reporter, forskolin-stimulated (AID 1146);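 also: PC12 cells with 6xCRE LacZ reporter stimulated by forskolin 10 µM; beta-galactosidase reporter signal reflecting CREB driven transcription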
conditionParameters: luminescence, 4.5 h, higher = more signal, called active from +8 up or from −8 down
The source made the active and inactive calls.
quantityKind: z-score

Below: 5 compounds and their reported z-score.
C=C(CCCC)C(=O)CC[C@H](OC(=O)c1ccccc1-c1ccccc1C(=O)O)c1ccccc1OCCO
5.73 (inactive)
C=CCC(OC(C)=O)[C@@H]1[C@@H](N(Cc2ccc(-c3ccccc3)cc2)C(=O)Cc2ccc(F)cc2)c2cc(OCCCO)ccc2N1C(=O)Cc1ccc2ccccc2c1 (stereo partly specified)
0.997 (inactive)
CC(C)[C@H]1NC(=O)[C@@]23C(=O)N[C@@H](Cc4ccccc4)C2[C@H](C)[C@@]2(C)O[C@H]2C3/C=C/C/C=C\CNC(=O)[C@H](Cc2ccccc2)NC1=O (stereo partly specified)
-0.513 (inactive)
O=C1C2C=CC(C(O)c3cccc(O)c3)N(Nc3ccccc3)C2C(=O)N1c1ccccc1 (stereo unspecified)
1.37 (inactive)
COCCOC(=O)N1C(=O)[C@@]2(c3cc(C#CCNC(N)=O)ccc31)[C@H](c1ccc(OCCO)cc1)N1[C@H](c3ccccc3)[C@H](c3ccccc3)OC(=O)[C@H]1[C@@H]2C(=O)NC[C@H](O)c1ccccc1
-0.567 (inactive)

Then there is this compound:
// COCCOC(=O)N1C(=O)[C@@]2(c3cc(C#CCCO)ccc31)[C@H](C(N)=O)[C@H]1C(=O)O[C@H](c3ccccc3)[C@H](c3ccccc3)N1[C@@H]2c1ccc(OCCO)cc1 : z-score value = -0.087 (inactive)
